Listed here are molecules together with their documented In Vivo BRh 3 mg·kg 8 h (remaining FAAH activity, % of control).
# assayTarget: FAAH (Mus musculus, UniProt O08914)
# Construct: A fragment of liver, left lung lobe and brain without cerebellum were removed; from tissue; host or cells: male NMRI mice; brain (without cerebellum) and liver homogenates
# protocolSummary: In vivo FAAH inhibition after oral dosing, remaining activity in brain homogenate (BRh, central nervous tissue)
# Design: species or system NMRI mice
# conditionNotes: brain homogenate, 3 mg/kg, 8 h after dosing; low value = strong inhibitor
experimentalEndpoint: In Vivo BRh 3 mg·kg 8 h (remaining FAAH activity, % of control)

structureNotation: COc1cc(-c2cn(C(=O)N3COCC3(C)C)cn2)ccc1F
reportedMeasurement: 7.1 % of control
--
structureNotation: Br.CN(C(=O)n1cnc(-c2ccc(O)c(F)c2)c1)C1CCN(Cc2ccccc2)CC1
reportedMeasurement: 3.1 % of control
--
structureNotation: CN(C(=O)n1cnc(-c2cccnc2)c1)C1CCN(CCc2ccccc2)CC1
reportedMeasurement: 3.8 % of control
--
structureNotation: COc1cc(-c2cn(C(=O)N(C)C3CCCCC3)cn2)ccc1F
reportedMeasurement: 5.9 % of control
--
structureNotation: CN(C(=O)n1cnc(-c2ccc[n+]([O-])c2)c1)C1CCN(Cc2ccccc2)CC1
reportedMeasurement: 1.3 % of control
--
structureNotation: CC1(C)COCN1C(=O)n1nnc2ccc(-c3ccccc3)cc21
reportedMeasurement: 6.3 % of control
--
structureNotation: CC1(C)COCN1C(=O)n1cnc(-c2cccc(O)c2)c1
reportedMeasurement: 76.6 % of control
--
structureNotation: COc1cc(-c2cn(C(=O)N(C)C3CCCC3)cn2)ccc1F
reportedMeasurement: 1.4 % of control
--
structureNotation: CN(C(=O)n1cnc(-c2ccc(O)c(F)c2)c1)C1CCCCC1
reportedMeasurement: 22.8 % of control

---

Listed here are molecules together with their documented In Vivo LVh 3 mg · kg · 8 h (remaining FAAH activity).
# assayTarget: FAAH (Mus musculus, UniProt O08914)
# Construct: A fragment of liver, left lung lobe and brain without cerebellum were removed; from tissue; host or cells: male NMRI mice; brain (without cerebellum) and liver homogenates
# Sequence (O08914 1-579): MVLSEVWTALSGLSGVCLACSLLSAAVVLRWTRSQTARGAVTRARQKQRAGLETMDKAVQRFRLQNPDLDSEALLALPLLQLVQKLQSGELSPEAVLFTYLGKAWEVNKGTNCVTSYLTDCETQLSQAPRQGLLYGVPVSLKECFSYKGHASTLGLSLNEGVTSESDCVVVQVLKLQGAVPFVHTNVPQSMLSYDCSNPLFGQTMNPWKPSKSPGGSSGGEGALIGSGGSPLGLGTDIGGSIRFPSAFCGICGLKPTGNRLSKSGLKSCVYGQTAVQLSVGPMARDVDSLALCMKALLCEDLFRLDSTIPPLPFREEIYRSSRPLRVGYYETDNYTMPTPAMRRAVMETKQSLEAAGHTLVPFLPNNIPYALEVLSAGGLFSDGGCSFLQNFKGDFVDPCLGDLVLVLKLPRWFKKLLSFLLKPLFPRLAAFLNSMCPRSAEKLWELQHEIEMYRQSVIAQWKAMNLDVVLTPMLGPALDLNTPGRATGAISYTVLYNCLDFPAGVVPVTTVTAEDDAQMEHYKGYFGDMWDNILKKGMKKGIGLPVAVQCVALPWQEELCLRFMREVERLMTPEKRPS
# protocolSummary: In vivo FAAH inhibition after oral dosing, remaining activity in liver homogenate (LVh, peripheral tissue)
# Design: species or system NMRI mice
# conditionNotes: liver homogenate, 3 mg/kg oral, 8 h; low value = strong inhibitor
# Protocol: The in vivo test was performed according to the protocol described below. BRh indicates inhibition in central nervous tissue and LVh indicates inhibition in peripheral tissue, in this case liver. […] Total protein in tissues was determined with the BioRad Protein Assay (BioRad) using a standard curve of BSA (50-250 μg/ml). […] The percentage of remaining enzymatic activity was calculated in respect to controls and after blank subtraction.
experimentalEndpoint: In Vivo LVh 3 mg · kg · 8 h (remaining FAAH activity)

molecule: CN(C(=O)n1cnc(-c2cccnc2)c1)C1CCN(CC(=O)O)CC1 [Compound 558]
reportedMeasurement: 91.1 % of control
//
molecule: CN(C(=O)n1cnc(-c2ccc(O)c(F)c2)c1)C1CCOCC1 [Compound no. 495]
reportedMeasurement: 2.3 % of control
//
molecule: CN(C(=O)n1cnc(-c2cccc(C(=O)NO)c2)c1)[C@H]1CC[C@H](O)CC1 [Compound 566]
reportedMeasurement: 69.8 % of control
//
molecule: CCN1CCC(N(C)C(=O)n2cnc(-c3cccc(OC)c3)c2)CC1 [Compound no. 502]
reportedMeasurement: 11.5 % of control
//
molecule: CCN1CCC(N(C)C(=O)n2cnc(-c3cccc([N+](=O)[O-])c3)c2)CC1 [Compound no. 509]
reportedMeasurement: 17.2 % of control
//
molecule: CN(C(=O)n1cnc(-c2ccccc2)c1)C1CCNCC1.Cl [Compound no. 504]
reportedMeasurement: 51.2 % of control
//
molecule: CCN1CCC(N(C)C(=O)n2cnc(-c3ccc(O)c(F)c3)c2)CC1 [Compound no. 536]
reportedMeasurement: 18.3 % of control
//
molecule: CCCN1CCC(N(C)C(=O)n2cnc(-c3ccc(O)c(C(N)=O)c3)c2)CC1 [Compound 554]
reportedMeasurement: 85.6 % of control
//
molecule: CCCN1CCC(N(C)C(=O)n2cnc(-c3ccc[n+]([O-])c3)c2)CC1 [Compound no. 519]
reportedMeasurement: 4.4 % of control
//
molecule: COc1ccc(-c2cn(C(=O)N(C)C3CCNCC3)cn2)cc1 [Compound no. 501]
reportedMeasurement: 67.4 % of control
//
molecule: Br.CCN1CCC(N(C)C(=O)n2cnc(-c3ccc(F)c(O)c3)c2)CC1 [Compound 561]
reportedMeasurement: 78.6 % of control
//
molecule: CN(C(=O)n1cnc(-c2ccc(-c3noc(=O)[nH]3)cc2)c1)C1CCCCC1 [Compound 551]
reportedMeasurement: 3.8 % of control
//
molecule: CN(C(=O)n1cnc(-c2cccnc2)c1)C1CCN(S(C)(=O)=O)CC1 [Compound no. 533]
reportedMeasurement: 0.2 % of control
//
molecule: CN(C(=O)n1cnc(-c2cccc(-c3cccc(C(N)=O)c3)c2)c1)C1CCN(Cc2ccccc2)CC1 [Compound 550]
reportedMeasurement: 5.7 % of control
//
molecule: CN(C(=O)n1cnc(-c2ccc(F)c(O)c2)c1)C1CCOCC1 [Compound no. 500]
reportedMeasurement: 21.8 % of control
//
molecule: CCCN1CCC(N(C)C(=O)n2cnc(-c3cccc(OC)c3)c2)CC1 [Compound no. 498]
reportedMeasurement: 12.6 % of control
//
molecule: CN(C(=O)n1cnc(-c2ccc3oc(=O)[nH]c3c2)c1)C1CCCC1 [Compound 564]
reportedMeasurement: 2.3 % of control
//
molecule: CN(C(=O)n1cnc(-c2cccc(NC(=N)N)c2)c1)C1CCCCC1.Cl [Compound 553]
reportedMeasurement: 15.4 % of control
//
molecule: CCCN1CCC(N(C)C(=O)n2cnc(-c3cccc(C(=O)NO)c3)c2)CC1 [Compound 552]
reportedMeasurement: 45 % of control
//
molecule: CN(C(=O)n1cnc(-c2ccc(O)c(C(N)=O)c2)c1)C1CCCCC1 [Compound no. 499]
reportedMeasurement: 44.1 % of control
//
molecule: COc1ccc(-c2cn(C(=O)N(C)C3CCCCC3)cn2)cc1/C(N)=N\O [Compound no. 507]
reportedMeasurement: 34 % of control
//
molecule: COc1ccc(-c2cn(C(=O)N(C)C3CCN(CCO)CC3)cn2)cc1F [Compound no. 540]
reportedMeasurement: 33.7 % of control
